pKi values recorded for UniProt P35372
Bear in mind: pKi is minus log10 of a mol/L concentration; give just that figure.

Input line: If you can, please state the reported pKi value of C[C@H]1[C@@H]2CC[C@H](c3ccccc3)CN2CC[C@@]1(C)c1cccc(O)c1 .
Output line: 7.14

Input line: Try C[C@H]1[C@@H]2CC[C@@H](c3ccccc3)CN2CC[C@@]1(C)c1cccc(O)c1 next.
Output line: 9.05

Continuing:
Input line: Fill blank: measured pKi of the compound C[C@H]1[C@@H]2CCCCN2CC[C@@]1(C)c1cccc(O)c1 is ____.
Output line: 6.92

====

Biological target: Kappa-type opioid receptor (Homo sapiens)
Experiment: Antagonist activity against human cloned kappa opioid receptor expressed in CHO cells assessed as inhibition of […]-stimulated [35S]GTPgammaS binding
Metric: pIC50
Quick note: pIC50 values are minus log10 of concentrations in mol/L.

Input line: Would you mind telling me what pIC50 value was observed for C[C@H]1CN2C[C@H](c3ccccc3)CC[C@H]2C[C@@]1(C)c1cccc(O)c1 ?
Output line: 8.92

====

Molecular target: UniProt:P35372
Assay: Agonist activity at human cloned mu opioid receptor expressed in CHO cells assessed as stimulation of [35S]GTP-gamma-S binding
Format: functional, cell-based
Metric: pEC50
# pEC50: negative log10 of molar concentration; output just the value

Input line: Quick one: pEC50 of C[C@H]1[C@@H]2CC[C@@H](c3ccccc3)CN2CC[C@@]1(C)c1cccc(O)c1 ?
Output line: 7.28

====

Target: Kappa-type opioid receptor (Homo sapiens, UniProt P41145)
Sequence (P41145 whole entry): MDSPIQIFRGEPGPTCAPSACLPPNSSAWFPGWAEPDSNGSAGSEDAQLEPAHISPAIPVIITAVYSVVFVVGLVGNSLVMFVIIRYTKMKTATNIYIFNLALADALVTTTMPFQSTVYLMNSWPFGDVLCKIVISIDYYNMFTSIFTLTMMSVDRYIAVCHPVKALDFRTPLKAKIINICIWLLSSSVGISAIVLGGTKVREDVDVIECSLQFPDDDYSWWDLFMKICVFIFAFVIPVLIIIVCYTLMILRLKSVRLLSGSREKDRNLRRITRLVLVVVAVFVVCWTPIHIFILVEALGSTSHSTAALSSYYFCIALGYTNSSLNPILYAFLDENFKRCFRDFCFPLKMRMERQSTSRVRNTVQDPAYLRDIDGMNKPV
Assay: Displacement of [3H]diprenorphine from human cloned kappa opioid receptor expressed in CHO cells
Type: cell-based
Listing of recorded Ki by entry.
Give your result in nM as a bare value.

# annotated cases, reported Ki shown
Input line: Could you tell me which Ki is on file for C[C@H]1CN2C[C@@H](c3ccccc3)CC[C@H]2C[C@@]1(C)c1cccc(O)c1 ?
Output line: 440

Input line: Another compound: C[C@H]1CN2CCCC[C@@H]2C[C@@]1(C)c1cccc(O)c1
Output line: 520

Now take the following compound into account.
Input line: Query (compound): C[C@H]1[C@H]2CC[C@@H](c3ccccc3)CN2CC[C@@]1(C)c1cccc(O)c1 ; field requested: Ki
Output line: 16

====

Target: Mu-type opioid receptor (Homo sapiens, UniProt P35372)
Sequence (P35372 whole entry): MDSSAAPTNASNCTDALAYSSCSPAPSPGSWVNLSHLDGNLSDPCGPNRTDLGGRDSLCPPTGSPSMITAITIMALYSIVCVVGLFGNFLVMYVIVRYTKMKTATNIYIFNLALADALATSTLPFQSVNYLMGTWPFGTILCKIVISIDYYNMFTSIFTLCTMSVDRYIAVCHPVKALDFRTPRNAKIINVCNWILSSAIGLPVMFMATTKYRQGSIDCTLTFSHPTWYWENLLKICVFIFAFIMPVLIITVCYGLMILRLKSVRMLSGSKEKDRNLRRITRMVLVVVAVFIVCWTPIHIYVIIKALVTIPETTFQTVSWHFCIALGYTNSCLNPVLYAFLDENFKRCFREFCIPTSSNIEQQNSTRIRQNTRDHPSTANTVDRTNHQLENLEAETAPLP
One threshold, 100 nM, splits the recorded Ki values: lower ones are Yes, equal or higher ones are No.

The examples below pair each entry with its known result.
Input line: Confirm or reject: Ki of C[C@H]1CN2CCCC[C@H]2C[C@@]1(C)c1cccc(O)c1 lies strictly below 100 nM
Output line: No

Input line: Next molecule: C[C@H]1CN2C[C@H](c3ccccc3)CC[C@H]2C[C@@]1(C)c1cccc(O)c1
Output line: Yes

Input line: Next entry: C[C@H]1[C@H]2CC[C@@H](c3ccccc3)CN2CC[C@@]1(C)c1cccc(O)c1
Output line: Yes

Input line: Likewise for C[C@H]1CN2C[C@@H](c3ccccc3)CC[C@H]2C[C@@]1(C)c1cccc(O)c1 ?
Output line: No

Input line: Next up: C[C@H]1CN2C[C@H](c3ccccc3)CC[C@@H]2C[C@@]1(C)c1cccc(O)c1
Output line: No

---
Input line: Quick check: does C[C@H]1CN2C[C@@H](c3ccccc3)CC[C@@H]2C[C@@]1(C)c1cccc(O)c1 have Ki under 100 nM?
Output line: No

Input line: Again, but for C[C@H]1[C@H]2CC[C@H](c3ccccc3)CN2CC[C@@]1(C)c1cccc(O)c1
Output line: Yes

Input line: Entry C[C@H]1CN2CCCC[C@@H]2C[C@@]1(C)c1cccc(O)c1 please
Output line: No
